Attribution: PubChem BioAssay (NCATS)

- targetUnderTest: Retinal dehydrogenase 2 (Homo sapiens) (UniProt O94788)
- assay: qHTS for Inhibitors of the Aldehyde Dehydrogenase Family (ALDH1A2) Confirmation screens (AID 2061314); also: nearly all actives have a fitted effect of over 65% in size
- studyConditions: ALDH1A2 enzyme inhibition qHTS confirmation; series mostly up to 45.9 µM
Results filed as inconclusive are left out. Active and inactive are the calls of the source. Calls follow the shape of the dose curve; as a rule, active = well fitted inhibition curve with a large enough effect; inconclusive = small, poorly fitted or top-dose-only effect; inactive = no such curve, though single readings can be large or run the other way.
Labels: active, inactive

{"compound": "Cc1ccc(-c2cc(C(=O)Nc3cccc(S(N)(=O)=O)c3)c3ccccc3n2)cc1C", "category": "inactive"}
{"compound": "CC[C@H](NC(=O)c1c(O)c(-c2ccccc2)nc2ccccc12)c1ccccc1", "category": "active"}
{"compound": "COc1ccc(C2=Nn3c(nnc3-c3cc(OC)cc(OC)c3)SC2)cc1", "category": "inactive"}
{"compound": "COc1ccc(C2Nc3ccccc3C(=O)N2Cc2ccc(Cl)cc2)cc1COc1ccc(NC(C)=O)cc1 (stereo unspecified)", "category": "active"}
{"compound": "CSC(=O)OCC1=C[C@@H]2OC(=O)C3=CO[C@@H](O[C@@H]4O[C@H](CO)[C@@H](O)[C@H](O)[C@H]4O)[C@H]1[C@@H]32", "category": "inactive"}
{"compound": "Cc1ccc(-c2nn3c(C)nnc3s2)cc1NCc1ccc(-c2cccc(Cl)c2)o1", "category": "active"}
{"compound": "C/C(=C\\CC/C(C)=C/CC[C@]1(C)CCc2cc(O)cc(C)c2O1)CC/C=C(\\C)C(=O)O", "category": "inactive"}
{"compound": "Cc1cc2c(s1)c1cnn(Cc3c(Cl)ccc(C)c3F)c(=O)c1n2C", "category": "inactive"}
{"compound": "CC(C)(C)c1ccc(C[C@H](C(=O)O)N2C(=O)c3ccc(C(=O)O)cc3C2=O)cc1", "category": "inactive"}
{"compound": "COc1cc(/C=C/C(=O)O[C@H]2[C@H](OC(=O)/C=C/c3cc(OC)c(O)c(OC)c3)O[C@H](CO[C@@H]3O[C@H](CO)[C@@H](O)[C@H](O)[C@H]3O)[C@@H](O)[C@@H]2O)ccc1O", "category": "inactive"}
{"compound": "O=C1c2ccccc2NC(c2ccc(-c3ccc(Br)cc3)o2)N1O (stereo unspecified)", "category": "active"}
{"compound": "Cc1cccc(-n2cnc3cc(C(=O)N4CCC(Br)CC4)ccc32)c1", "category": "inactive"}
{"compound": "CC(=O)c1ccc(N2CCN(S(=O)(=O)c3ccc4c(c3)C(C)(C)C(=O)N4)CC2)cc1", "category": "inactive"}
{"compound": "CC1(C)CCC2(C(=O)OC3OC(CO)C(O)C(O)C3O)CCC3(C)C(=CCC4C5(C)CCC(O)C(C)(C(=O)O)C5CCC43C)C2C1O (stereo unspecified)", "category": "inactive"}
{"compound": "O=C(NCc1ccc(F)c(F)c1)c1ccc2nnc(-c3cccc(C(F)(F)F)c3)n2c1", "category": "inactive"}
{"compound": "O=C(OC1C=C(CO)C2C(OC3OC(CO)C(O)C(O)C3O)OC=CC12O)c1ccc(O)cc1 (stereo unspecified)", "category": "inactive"}
{"compound": "Cc1ccc(-c2nccc(=O)n2CC(=O)NCCc2ccccc2)cc1", "category": "inactive"}
{"compound": "O=C(O)c1ccc2c(c1)C(=O)N([C@]1(C(=O)O)C[C@H]1c1ccccc1)C2=O", "category": "inactive"}
{"compound": "CCOC(=O)C1CCN(c2ccc(NCc3ccc(-c4ccc(C#N)cc4)o3)cc2)CC1", "category": "active"}
{"compound": "COc1cc(O)c(C(CC(=O)N2CCCC(C(C)C)C2)c2ccc3c(c2)OCO3)c(OC)c1 (stereo unspecified)", "category": "inactive"}
{"compound": "CC(=O)/C=C1/C(=O)N(C)c2ccccc21", "category": "active"}
{"compound": "COc1cc2c(CCNC(C)=O)c[nH]c2cc1Cl", "category": "inactive"}
{"compound": "CCOc1cc(CNc2ccc(C(=O)O)cc2)ccc1OCc1ccccc1", "category": "active"}
{"compound": "Cc1ccnc(NC(=S)N2CCN(C)CC2)c1", "category": "inactive"}
{"compound": "COc1ccccc1-c1cc(NCCc2ccccn2)c2onc(C)c2n1", "category": "inactive"}
{"compound": "C=C1CC23CC1CCC2C12OC(=O)C(C)(CCC1O)C2C3C(=O)O (stereo unspecified)", "category": "inactive"}
{"compound": "S=C(Nc1cc(Cl)ccn1)N1CCN(c2cccc(Cl)c2Cl)CC1", "category": "active"}
{"compound": "O=C(C1CCN(c2nc(-c3ccc(Br)cc3)cs2)CC1)N1CCNCC1", "category": "inactive"}
{"compound": "COc1ccc(-c2ccc(CNc3ccc(N4CCN(C(=O)OC(C)(C)C)CC4)cc3)o2)cc1", "category": "active"}
{"compound": "Cc1nnc(-c2cnn(C)c2N)n1CCc1ccccc1", "category": "inactive"}
{"compound": "NC(=O)C1CCN(c2ncc(-c3cccc(N4CCOCC4)c3)s2)CC1", "category": "inactive"}
{"compound": "OC[C@H]1O[C@@H](Oc2ccc(O)c3cccc(O)c23)[C@H](O)[C@@H](O)[C@@H]1O", "category": "active"}
{"compound": "Oc1ccc(CNc2cccnc2)c2cccnc12", "category": "active"}
{"compound": "Fc1ccc(-c2nc(C3CCNCC3)sc2-c2ccnc(NC3CC3)n2)cc1", "category": "inactive"}
{"compound": "CC(C)(C)OC(=O)N1CCN(c2ncc(NCc3ccc(-c4ccc(C#N)cc4)o3)cn2)CC1", "category": "active"}
{"compound": "CC(=O)Nc1ccc(Nc2nc3c(S(=O)(=O)c4cccc(Cl)c4)nnn3c3ccsc23)cc1", "category": "inactive"}
